Measured values drawn from paper PMC9817974 for this set.

Experiment: Single-dose oral pharmacokinetic study of ATB tablets in healthy human subjects (plasma and saliva, non-compartmental analysis)
Type: in vivo
Details: both sexes, human, saliva, po, 2400 mg, average of 8 healthy volunteers; single oral dose 2400 mg ATB; saliva; read-out: Cmax Saliva
parameter.measured: Cmax (ng/mL)
Give a bare numeral; the unit ng/mL is implied.

Request: State its Cmax for this compound: O=C1CCC[C@@H]2[C@H]3CCCN4CCC[C@@H](CN12)[C@@H]34
Response: 153

----------
Test: Single-dose oral pharmacokinetic study of ATB tablets in healthy human subjects (plasma and saliva, non-compartmental analysis)
Format: in vivo
Settings: both sexes, human, plasma, po, 2400 mg, individual subjects; single oral dose 2400 mg ATB (8 tablets); plasma; read-out: Cmax Plasma
parameter.measured: Cmax (ng/mL)
Kindly answer with a numeric value in ng/mL, unit omitted.

Request: For the molecule O=C1CCC[C@@H]2[C@H]3CCCN4CCC[C@@H](CN12)[C@@H]34 , report Cmax.
Response: 22.8

----------
Test: Single-dose oral pharmacokinetic study of ATB tablets in healthy human subjects (plasma and saliva, non-compartmental analysis)
Format: in vivo
Conditions: both sexes, human, plasma, po, 2.6 mg, plasma; 2.6 mg Matr p.o. (8 ATB tablets); read-out: Cmax Healthy Volunteers Observed
parameter.measured: Cmax (ng/mL)
Please respond with the number in ng/mL and leave the unit unwritten.

Request: For the compound O=C1CCC[C@@H]2[C@H]3CCCN4CCC[C@@H](CN12)[C@@H]34 , give its reported Cmax.
Response: 25.2

----------
Assay: Single-dose oral pharmacokinetic study of ATB tablets in healthy human subjects (plasma and saliva, non-compartmental analysis)
Format: in vivo
Conditions: both sexes, human, saliva, po, 2400 mg, average of 8 healthy volunteers; single oral dose 2400 mg ATB; saliva; read-out: AUC0–24 Saliva
parameter.measured: AUC(0-t) (ng·h/mL)
Number in ng·h/mL, nothing else.

Request: Supply AUC(0-t) value. Item: O=C1CCC[C@@H]2[C@H]3CCCN4CCC[C@@H](CN12)[C@@H]34
Response: 1210

----------
Experiment: Single-dose oral pharmacokinetic study of ATB tablets in healthy human subjects (plasma and saliva, non-compartmental analysis)
Type: in vivo
Conditions: both sexes, human, plasma, po, 2400 mg, average of 8 healthy volunteers; single oral dose 2400 mg ATB; plasma; read-out: AUC0–24 Plasma
parameter.measured: AUC(0-t)
Quote the value and follow it with the unit of measurement.

Request: Note down AUC(0-t) recorded for O=C1CCC[C@@H]2[C@H]3CCCN4CCC[C@@H](CN12)[C@@H]34
Response: 266 ng·h/mL

----------
Assay: Single-dose oral pharmacokinetic study of ATB tablets in healthy human subjects (plasma and saliva, non-compartmental analysis)
Type: in vivo
Conditions: both sexes, human, saliva, po, 2400 mg, average of 8 healthy volunteers; single oral dose 2400 mg ATB; saliva; read-out: Half-Life Saliva (converted)
parameter.measured: half-life (min)
Hi! Could you send only the number? It should be in min, unit omitted.

Request: Query half-life for O=C1CCC[C@@H]2[C@H]3CCCN4CCC[C@@H](CN12)[C@@H]34 [matrine]
Response: 804

----------
Assay: Single-dose oral pharmacokinetic study of ATB tablets in healthy human subjects (plasma and saliva, non-compartmental analysis)
Assay type: in vivo
Conditions: both sexes, human, plasma, po, 2.6 mg, plasma; 2.6 mg Matr p.o. (8 ATB tablets); read-out: Tmax Healthy Volunteers Observed
parameter.measured: Tmax (h)
Give the value, in units of h, as a plain number.

Request: Output Tmax of O=C1CCC[C@@H]2[C@H]3CCCN4CCC[C@@H](CN12)[C@@H]34
Response: 2.2
